System: Prolinoborus 1 (Prolinoborus fasciculus)
assaySummary: relative growth (AUC of 72 h growth curve relative to DMSO control, dAUC) (ratio); higher = more growth (less inhibition), active = hit call of the paper
appliedConditions: 20 µM
measuredParameter: relative growth
Reply with just the number.

Checklist item: relative growth tested on Prolinoborus 1 (Prolinoborus fasciculus), entry OC(Cc1ccccc1Cl)(Cn1nc[nH]c1=S)C1(Cl)CC1 (stereo not drawn) , value?
1.02

Same again, this time with CN/C(=N/CC1CCOC1)N[N+](=O)[O-] (stereo not drawn)
0.955

Also Nc1c([N+](=O)[O-])ccc(Oc2ccccc2)c1Cl ?
0.962

Please answer likewise for Cc1cc(C(C#N)c2ccc(Cl)cc2)c(Cl)cc1NC(=O)c1cc(I)cc(I)c1O (stereo not drawn)
0.673

Entry O=C(O)COc1ccc(Cl)cc1Cl please
1.01

Do the same for CCCCOC(=O)[C@H](C)Oc1ccc(Oc2ccc(C#N)cc2F)cc1 please
1.02

// next record CO/C=C(/C(=O)OC)c1ccccc1COc1cccc(C(F)(F)F)n1
0.929

How about this compound: Oc1ccccc1-c1ccccc1
0.977

Another compound to look at: CNC(=O)ON=C(C)SC
0.938

Try the compound CCN(CC)c1nc(C)cc(OP(=S)(OC)OC)n1
1.01

Likewise for CCOC(=O)CC(SP(=S)(OC)OC)C(=O)OCC (stereo not drawn) ?
1.01

Here is the next compound: CCOP(=S)(OCC)Oc1nc(Cl)c(Cl)cc1Cl
0.989

Same again, this time with N#Cc1c(Cl)c(Cl)c(Cl)c(C#N)c1Cl
1.04

---

System: Aeromonas 3 (Aeromonas popoffii)
assaySummary: relative growth (AUC of 72 h growth curve relative to DMSO control, dAUC) (ratio); higher = more growth (less inhibition), active = hit call of the paper
appliedConditions: 20 µM
measuredParameter: relative growth
Output spec: single numeric token, no unit.

// lookup relative growth | system=Aeromonas 3 (Aeromonas popoffii) | key= CCc1cc(C)cc(CC)c1-c1c(OC(=O)C(C)(C)C)n2n(c1=O)CCOCC2
1.02

Input Cc1cc(C(F)(C(F)(F)F)C(F)(F)F)ccc1NC(=O)c1cccc(I)c1C(=O)NC(C)(C)CS(C)(=O)=O
1.41

Here is the next compound: CO/N=C(/C(=O)OC)c1ccccc1CO/N=C(\C)c1cccc(C(F)(F)F)c1
0.961

Next record, please: COP(=S)(OC)SCN1C(=O)c2ccccc2C1=O
1.01

Another compound to look at: CNC(=O)Oc1cccc(/N=C/N(C)C)c1
0.975

What about this compound? CCCCOC(=O)[C@H](C)Oc1ccc(Oc2ccc(C#N)cc2F)cc1
1.05

For Cc1c(COC(=O)[C@@H]2[C@H](/C=C(\Cl)C(F)(F)F)C2(C)C)cccc1-c1ccccc1 (racemic) then?
1.05

Okay, and CN(C)C(CSS(=O)(=O)O)CSS(=O)(=O)O ?
0.992

For CC1(C)C(C(=O)OC(C#N)c2cccc(Oc3ccccc3)c2)C1(C)C (stereo not given) then?
1.08

Same question for CSc1nnc(C(C)(C)C)c(=O)n1N please.
1.04

---

For each entry below, report its relative growth value.
System: Community 10
assaySummary: relative growth (AUC of 72 h growth curve relative to DMSO control, dAUC) (ratio); higher = more growth (less inhibition), active = hit call of the paper
appliedConditions: 20 µM
Could you respond with only the numeric value?

# relative growth lookup, item OC(Cc1ccccc1Cl)(Cn1nc[nH]c1=S)C1(Cl)CC1 (stereo unspecified)
0.945

What do we get for CC1(C)[C@H](C(=O)O[C@H](C#N)c2cccc(Oc3ccccc3)c2)[C@@H]1C=C(Br)Br ?
0.964

One more compound: CC[C@H]1CCC[C@H](O[C@H]2CC[C@H](N(C)C)[C@@H](C)O2)[C@@H](C)C(=O)C2=C[C@@H]3[C@@H](C=C(C)[C@@H]4C[C@@H](O[C@@H]5O[C@@H](C)[C@H](OC)[C@@H](OC)[C@H]5OC)C[C@@H]34)[C@@H]2CC(=O)O1.CC[C@H]1CCC[C@H](O[C@H]2CC[C@H](N(C)C)[C@@H](C)O2)[C@@H](C)C(=O)C2=C[C@H]3[C@@H]4C[C@H](O[C@@H]5O[C@@H](C)[C@H](OC)[C@@H](OC)[C@H]5OC)C[C@H]4C=C[C@H]3C2CC(=O)O1
0.772

Also need O=C(NC(=O)c1c(F)cccc1F)Nc1ccc(Cl)cc1 , thanks.
0.795

Now consider C#CCOc1ccc(CCNC(=O)C(OCC#C)c2ccc(Cl)cc2)cc1OC (stereo unspecified) .
0.982

Ok, now CCCCOC(=O)[C@H](C)Oc1ccc(Oc2ccc(C#N)cc2F)cc1
0.88
